Cited source: ChEMBL document CHEMBL1141223

system: Delta-type opioid receptor (Mus musculus)
Sequence (P32300 whole entry): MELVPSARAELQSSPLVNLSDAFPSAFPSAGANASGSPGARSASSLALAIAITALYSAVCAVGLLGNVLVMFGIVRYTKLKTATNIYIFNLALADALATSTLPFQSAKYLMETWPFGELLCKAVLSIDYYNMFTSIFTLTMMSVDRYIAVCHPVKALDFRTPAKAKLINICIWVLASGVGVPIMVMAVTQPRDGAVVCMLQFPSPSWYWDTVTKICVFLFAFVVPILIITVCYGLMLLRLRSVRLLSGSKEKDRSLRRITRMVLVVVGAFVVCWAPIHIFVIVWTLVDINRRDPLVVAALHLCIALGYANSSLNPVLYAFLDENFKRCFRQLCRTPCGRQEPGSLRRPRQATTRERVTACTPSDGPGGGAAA
methodSummary: Displacement of deltorphin-II from delta opioid receptor in mouse vas deferens
assayContext: read-out: pA2 (converted)
// map Kb onto a label; ranges bucket 1: < 0.01 nM; bucket 2: ≥ 0.01 nM and < 0.03 nM; bucket 3: ≥ 0.03 nM

- molecule: "Cc1cc(O)cc(C)c1C[C@H](N)C(=O)N1Cc2ccccc2CC1C(=O)NCCCCc1nc(O)c(CCCCNC(=O)C2Cc3ccccc3CN2C(=O)[C@@H](N)Cc2c(C)cc(O)cc2C)nc1C (some centres not stated)"
  labelValue: "bucket 1"
- molecule: "Cc1cc(O)cc(C)c1C[C@H](N)C(=O)N1Cc2ccccc2CC1C(=O)NCCc1nc(O)c(CCNC(=O)C2Cc3ccccc3CN2C(=O)[C@@H](N)Cc2c(C)cc(O)cc2C)nc1C (some centres not stated)"
  labelValue: "bucket 2"
- molecule: "Cc1cc(O)cc(C)c1C[C@H](N)C(=O)N1Cc2ccccc2CC1C(=O)NCCCc1nc(O)c(CCCNC(=O)C2Cc3ccccc3CN2C(=O)[C@@H](N)Cc2c(C)cc(O)cc2C)nc1C (some centres not stated)"
  labelValue: "bucket 2"
- molecule: "Cc1cc(O)cc(C)c1C[C@@H](C(=O)N1Cc2ccccc2CC1C(=O)NCCCc1nc(O)c(CCCNC(=O)C2Cc3ccccc3CN2C(=O)[C@H](Cc2c(C)cc(O)cc2C)N(C)C)nc1C)N(C)C (some centres not stated)"
  labelValue: "bucket 3"
- molecule: "Cc1cc(O)cc(C)c1C[C@H](N)C(=O)N1Cc2ccccc2CC1C(=O)NCCCCc1[nH]c(=O)c(CCCNC(=O)C2Cc3ccccc3CN2C(=O)[C@@H](N)Cc2c(C)cc(O)cc2C)nc1C (some centres not stated)"
  labelValue: "bucket 2"

Band for the recorded Kb of Cc1cc(O)cc(C)c1C[C@H](N)C(=O)N1Cc2ccccc2CC1C(=O)NCCCCNC(=O)C1Cc2ccccc2CN1C(=O)[C@@H](N)Cc1c(C)cc(O)cc1C (some centres not stated) ?
bucket 3

Which bin, given its Kb, does Cc1cc(O)cc(C)c1C[C@H](N)C(=O)N1Cc2ccccc2CC1C(=O)NCCCCc1nc(C)c(CCCNC(=O)C2Cc3ccccc3CN2C(=O)[C@@H](N)Cc2c(C)cc(O)cc2C)nc1O (some centres not stated) occupy?
bucket 3

Band for Cc1cc(O)cc(C)c1C[C@@H](C(=O)N1Cc2ccccc2CC1C(=O)NCCCCCCNC(=O)C1Cc2ccccc2CN1C(=O)[C@H](Cc1c(C)cc(O)cc1C)N(C)C)N(C)C (some centres not stated) ?
bucket 1

Just checking, what class would you give Cc1cc(O)cc(C)c1C[C@H](N)C(=O)N1Cc2ccccc2CC1C(=O)NCc1nc(O)c(CNC(=O)C2Cc3ccccc3CN2C(=O)[C@@H](N)Cc2c(C)cc(O)cc2C)nc1C (some centres not stated) here?
bucket 1

Which class is correct for the following molecule? Cc1cc(O)cc(C)c1C[C@H](N)C(=O)N1Cc2ccccc2CC1C(=O)NCCCCCCCCCCNC(=O)C1Cc2ccccc2CN1C(=O)[C@@H](N)Cc1c(C)cc(O)cc1C (some centres not stated)
bucket 2

Class for Cc1cc(O)cc(C)c1C[C@H](N)C(=O)N1Cc2ccccc2CC1C(=O)NCCCCCCNC(=O)C1Cc2ccccc2CN1C(=O)[C@@H](N)Cc1c(C)cc(O)cc1C (some centres not stated) ?
bucket 2
